# Lookup of reported inhibition at 20 µM keyed by entry
# target: recombinant human MAO-B (Homo sapiens)
# Construct: purchased Sigma-Aldrich M7441-1VL
# Sequence (P27338 whole entry): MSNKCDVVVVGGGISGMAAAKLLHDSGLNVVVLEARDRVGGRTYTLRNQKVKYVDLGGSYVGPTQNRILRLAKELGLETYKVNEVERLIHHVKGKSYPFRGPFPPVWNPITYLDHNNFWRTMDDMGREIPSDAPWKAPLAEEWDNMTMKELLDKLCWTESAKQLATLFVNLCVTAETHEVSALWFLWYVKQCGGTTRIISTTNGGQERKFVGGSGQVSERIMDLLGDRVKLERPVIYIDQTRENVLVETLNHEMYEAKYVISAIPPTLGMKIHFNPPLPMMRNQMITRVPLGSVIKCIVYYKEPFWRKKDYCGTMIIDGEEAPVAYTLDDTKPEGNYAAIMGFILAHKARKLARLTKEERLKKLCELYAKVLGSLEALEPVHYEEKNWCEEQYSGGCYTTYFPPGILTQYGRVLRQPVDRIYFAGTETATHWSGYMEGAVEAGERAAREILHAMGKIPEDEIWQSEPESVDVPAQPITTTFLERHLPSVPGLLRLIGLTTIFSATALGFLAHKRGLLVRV
# test.details: MAO-Glo assay, MAO-B
# Type: biochemical
# stated.conditions: read-out: % Inhibition at 20 μM ± SD, MAO-B
# Protocol: To determine selectivity, the compounds were tested for activity against the related FAD-dependent amine oxidase enzymes LSD1, MAO-A, and MAO-B. LSD1 activity was assessed using a commercially available assay kit (#700120, Cayman Chemical, Ann Arbor, MI, USA), in which the enzyme activity was determined by the horseradish peroxidase-catalyzed oxidation of 10-acetyl-3,7-dihydroxyphenoxazine to the highly fluorescent resorufin in response to H2O2 production. […]
Value expressed in %; do not type the unit.

N=C(N)NCCCNCC(O)c1cc(O)cc(O)c1 (stereo not drawn) = 3.5
Cc1cc([C@H](O)CNCCCNC(=N)N)cc(C)c1O = -13.7
N=C(N)NCCNCC(O)c1ccc(O)c(O)c1 (stereo not drawn) = 12.6

I have this compound here, N=C(N)NCCCNCC(O)c1cc(O)ccc1O (stereo not drawn) , and I need its recorded inhibition at 20 µM.
29

Given N=C(N)NCCCNCC(O)c1ccc(O)c(O)c1 (stereo not drawn) , state its recorded inhibition at 20 µM.
4.5

Give the measured inhibition at 20 µM of N=C(N)NCCCCNCC(O)c1cc(O)cc(O)c1 (stereo not drawn) .
-16.9

* * *

# target: SMOX (Homo sapiens, UniProt Q9NWM0)
# Construct: using 0.3 µg/mL of purified SMOX enzyme and 2 mM of spermine substrate
# Sequence (Q9NWM0 whole entry): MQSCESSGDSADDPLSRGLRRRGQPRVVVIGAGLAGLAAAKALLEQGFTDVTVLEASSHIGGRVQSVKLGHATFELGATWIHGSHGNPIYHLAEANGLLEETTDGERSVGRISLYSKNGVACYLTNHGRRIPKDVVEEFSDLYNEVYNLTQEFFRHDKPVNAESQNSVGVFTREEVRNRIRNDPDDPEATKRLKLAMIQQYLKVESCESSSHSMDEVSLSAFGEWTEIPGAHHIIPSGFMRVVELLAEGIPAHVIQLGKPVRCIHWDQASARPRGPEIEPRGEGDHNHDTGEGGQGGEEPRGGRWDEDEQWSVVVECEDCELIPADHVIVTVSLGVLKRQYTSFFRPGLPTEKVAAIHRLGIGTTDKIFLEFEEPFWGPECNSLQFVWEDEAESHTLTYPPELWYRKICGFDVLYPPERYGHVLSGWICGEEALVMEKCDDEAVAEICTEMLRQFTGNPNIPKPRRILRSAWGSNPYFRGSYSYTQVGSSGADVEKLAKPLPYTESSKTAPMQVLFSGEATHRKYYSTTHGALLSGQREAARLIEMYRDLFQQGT
# test.details: SMOX enzyme activity, HRP-luminol chemiluminescence assay
# Assay type: biochemical
# stated.conditions: 20 µM compound, 2 mM spermine, no pre-incubation, triplicate; read-out: % Inhibition at 20 μM ± SD, SMOX
parameter.measured: inhibition at 20 µM (%)
Lab book: enter the figure in %, no units written.

// below: answered molecules
Cc1cc([C@H](O)CNCCCNC(=N)N)cc(C)c1O [Compound 6] = 99.7
C=C=CCNCCCCNCC=C=C [MDL-72527] = 10.2
N=C(N)NCCNCC(O)c1ccc(O)c(O)c1 (stereo not shown) [Compound 4] = 95.7
N=C(N)NCCCNCC(O)c1ccc(O)c(O)c1 (stereo not shown) [Compound 5] = 96.3
N=C(N)NCCCNCC(O)c1cc(O)cc(O)c1 (stereo not shown) [Compound 2] = 93.6
N=C(N)NCCCNCC(O)c1cc(O)ccc1O (stereo not shown) [Compound 7] = 99.9

Return inhibition at 20 µM measured with SMOX (Homo sapiens, UniProt Q9NWM0) given this molecule: N=C(N)NCCCCNCC(O)c1cc(O)cc(O)c1 (stereo not shown) [Compound 3]
96.7

* * *

# target: LSD1 (Homo sapiens)
# Construct: purchased Cayman Chemical #700120
# test.details: LSD1 selectivity assay (Cayman kit, resorufin fluorescence)
# Format: biochemical
# stated.conditions: read-out: % Inhibition at 20 μM ± SD, LSD1
inhibition at 20 µM overview
Numbers only here, please. The scale is %.

Would you please look over these solved cases?
N=C(N)NCCCCNCC(O)c1cc(O)cc(O)c1 (stereo not drawn) = 41.6
N=C(N)NCCNCC(O)c1ccc(O)c(O)c1 (stereo not drawn) = 31.9
Cc1cc([C@H](O)CNCCCNC(=N)N)cc(C)c1O = -24.2
N=C(N)NCCCNCC(O)c1ccc(O)c(O)c1 (stereo not drawn) = 46.2

Consider now this further molecule.
// inhibition at 20 µM lookup, key: N=C(N)NCCCNCC(O)c1cc(O)cc(O)c1 (stereo not drawn)
-18.7
